Source: PubChem BioAssay (NCATS)

- Test system: CP325
- Test Protocol: qHTS profiling for inhibitors of Plasmodium falciparum proliferation (AID 504749); also: nearly all actives have a fitted effect of over 60% in size
- Assay Conditions: P. falciparum in erythrocytes, SYBR Green DNA, 72 h; series mostly up to 28.7 µM
Results filed as inconclusive are left out. Calls of active or inactive are those of the source. Calls follow the shape of the dose curve; as a rule, active = well fitted inhibition curve with a large enough effect; inconclusive = small, poorly fitted or top-dose-only effect; inactive = flat fitted curve, though single readings scatter. Peptide text beside a SMILES is read from it.
Possible outcomes: active, inactive

{"Molecule": "Cn1c(NCCN(CCO)CCCc2ccc([N+](=O)[O-])cc2)cc(=O)n(C)c1=O", "Class Label": "inactive"}
{"Molecule": "CC(S)C(=O)NCC(=O)O (stereo unspecified)", "Class Label": "inactive"}
{"Molecule": "CCCCCCCCCCCCCCCCCCCCCCO", "Class Label": "inactive"}
{"Molecule": "COc1ccc(C2(C#N)CCC(C(=O)O)CC2)cc1OC1CCCC1 (stereo unspecified)", "Class Label": "inactive"}
{"Molecule": "Cc1cccc(C)c1OCC(=O)N[C@@H](Cc1ccccc1)[C@@H](O)C[C@H](Cc1ccccc1)NC(=O)[C@H](C(C)C)N1CCCNC1=O", "Class Label": "active"}
{"Molecule": "Cc1nc(Nc2ncc(C(=O)Nc3c(C)cccc3Cl)s2)cc(N2CCN(CCO)CC2)n1", "Class Label": "inactive"}
{"Molecule": "O=c1oc2cc(O)ccc2s1", "Class Label": "inactive"}
{"Molecule": "CCCc1cc(=O)[nH]c(=S)[nH]1", "Class Label": "inactive"}
{"Molecule": "COC(=O)[C@H](Cc1ccccc1)NC(=O)[C@@H](N)CC(=O)O (H-Asp-Phe-OMe)", "Class Label": "inactive"}
{"Molecule": "CCc1nc(N)nc(N)c1-c1ccc(Cl)cc1", "Class Label": "inactive"}
{"Molecule": "Nc1ccc(S(N)(=O)=O)cc1", "Class Label": "inactive"}
